I'd appreciate it if you could supply normalized growth values for the items below.
RUN DESCRIPTION: chemical genetic growth profiling, strain panel (AID 1159580);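 further: tested at 20 µM; growth read once vehicle control cultures reached saturation at 30 °C; 1 = growth at the plate median or of vehicle wells; lower values mean less growth of the strain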
REPORTED CONDITIONS: S. cerevisiae deletion strains, growth OD, locus YJR043C, strain POL32, hits give low values
Out of some 5,500 compounds screened, about 2,000 (36%) were called active. Roughly 18% stayed inconclusive and do not appear here. This is one part of the list.

Ask: Identify measured normalized growth associated with CN1c2ccccc2C(=O)/C(=N/Nc2ccccc2F)S1(=O)=O
Reply: 1.01 (inactive)

Ask: Identify measured normalized growth associated with C[C@@H]1O[C@@H](O[C@H]2CC[C@]3(C=O)C4CC[C@]5(C)[C@@H](C6=CC(=O)OC6)CC[C@]5(O)C4CC[C@]3(O)C2)[C@H](O)[C@H](O)[C@H]1O (stereo not given in full)
Reply: 0.99 (inactive)

Ask: Identify measured normalized growth associated with NCC(O)CC(=O)O (stereo not given)
Reply: 1.02 (inactive)

Ask: Identify measured normalized growth associated with NC(=O)c1cc([N+](=O)[O-])cc([N+](=O)[O-])c1
Reply: 0.967 (inactive)

Record normalized growth for all entries; do not skip any.
1. C[C@H]1[C@H](C)CC[C@]2(C(=O)O)CC[C@]3(C)C(=CCC4[C@@]5(C)C[C@@H](O)[C@H](O)[C@@](C)(CO)C5[C@H](O)C[C@]43C)[C@H]12 (stereo not given in full)
2. CC1(C)S[C@@H]2[C@H](NC(=O)[C@@H](N)c3ccc(O)cc3)C(=O)N2[C@H]1C(=O)O
3. COc1nc(NC(C)C)nc(NC(C)C)n1
4. Cc1c(C(N)=O)cc([N+](=O)[O-])cc1[N+](=O)[O-]
5. Cc1cc(N)c2ccccc2[n+]1CCCCCCCCCC[n+]1c(C)cc(N)c2ccccc21
6. COc1cccc2c1CCC1=CC(=O)CC[C@@]12C

Reply:
["0.985 (inactive)", "1.01 (inactive)", "1.03 (inactive)", "1.02 (inactive)", "0.0703 (active)", "0.97 (inactive)"]

----------
RUN DESCRIPTION: chemical genetic growth profiling, strain panel (AID 1159580)
REPORTED CONDITIONS: S. cerevisiae deletion strains, growth OD, locus YOR184W, strain ser1
In all, about 5,500 compounds went through this assay and about 2,000 (36%) were called active. Roughly 18% stayed inconclusive and do not appear here. Rule as the data show it: active = normalized growth mostly below about 0.91 (no sharp cut-off); inconclusive = no clear call, values can overlap the other calls; inactive = mostly above about 0.92. The list shows a part of the results.
Please state which outcome applies, choosing from true for active, false for inactive

The following compounds have reported results that may help.
Ask: Which outcome was entered for the compound C/C=C/CC(C)C(O)C1C(=O)NC(CC)C(=O)N(C)CC(=O)N(C)C(CC(C)C)C(=O)NC(C(C)C)C(=O)N(C)C(CC(C)C)C(=O)NC(C)C(=O)NC(C)C(=O)N(C)C(CC(C)C)C(=O)N(C)C(CC(C)C)C(=O)N(C)C(C(C)C)C(=O)N1C (stereo not drawn) in this test?
Reply: false

Ask: Which outcome was entered for the compound CCC(=O)O[C@]1(C(=O)CCl)[C@@H](C)CC2C3CCC4=CC(=O)C=C[C@]4(C)[C@@]3(F)[C@@H](O)C[C@@]21C (stereo partly drawn) in this test?
Reply: false

Others:
Ask: Which outcome was entered for the compound COc1cc(C(=O)N2CCOCC2)cc(OC)c1OC in this test?
Reply: true

----------
I'd appreciate it if you could supply normalized growth values for the items below.
RUN DESCRIPTION: chemical genetic growth profiling, strain panel (AID 1159580)
REPORTED CONDITIONS: S. cerevisiae deletion strains, growth OD, locus YDL185W, strain tfp1, hits give low values
In all, about 5,500 compounds went through this assay and about 2,000 (36%) were called active. Roughly 18% stayed inconclusive and do not appear here. This is one part of the list.
Give bare numbers.

Previously resolved entries follow.
Ask: Identify measured normalized growth associated with Nc1nc(/C(=C/CC(=O)O)C(=O)N[C@@H]2C(=O)N3C(C(=O)O)=CCS[C@H]23)cs1
Reply: 0.99

Ask: Identify measured normalized growth associated with CC[C@@]1(O)C(=O)OCc2c1cc1n(c2=O)Cc2cc3cc(O)ccc3nc2-1
Reply: 0.996

Ask: Identify measured normalized growth associated with C/C=C/CC(C)C(O)C1C(=O)NC(CC)C(=O)N(C)CC(=O)N(C)C(CC(C)C)C(=O)NC(C(C)C)C(=O)N(C)C(CC(C)C)C(=O)NC(C)C(=O)NC(C)C(=O)N(C)C(CC(C)C)C(=O)N(C)C(CC(C)C)C(=O)N(C)C(C(C)C)C(=O)N1C (configuration not stated)
Reply: 0.358

Ask: Identify measured normalized growth associated with O=C(CCCN1CCC(O)(c2ccc(Cl)cc2)CC1)c1ccc(F)cc1
Reply: 1.01

Ask: Identify measured normalized growth associated with NC[C@H]1O[C@H](O[C@H]2[C@H](O)[C@@H](O[C@H]3O[C@H](CO)[C@@H](O)[C@H](N)[C@H]3O)[C@H](N)C[C@@H]2N)[C@H](N)[C@@H](O)[C@@H]1O
Reply: 0.95

Ask: Identify measured normalized growth associated with COC1=CC(C)[C@@H]2C[C@H]3OC(=O)C[C@H]4C(C)=C(OC)C(=O)C([C@@]34C)[C@@]2(C)C1=O (some centres not stated)
Reply: 1.02

Now, please, on to the next compound.
Ask: Identify measured normalized growth associated with CC[C@@]1(O)C(=O)OCc2c1cc1n(c2=O)Cc2cc3ccccc3nc2-1
Reply: 0.782

----------
RUN DESCRIPTION: chemical genetic growth profiling, strain panel (AID 1159580);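 further: tested at 20 µM; growth read once vehicle control cultures reached saturation at 30 °C; 1 = growth at the plate median or of vehicle wells; lower values mean less growth of the strain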
REPORTED CONDITIONS: S. cerevisiae deletion strains, growth OD, locus YJL187C, strain SWE1, hits give low values
Among all 5,500 compounds or so, about 2,000 (36%) were called active. Inconclusive results (about 18%) are left out. The list shows a part of the results.
I'd appreciate it if you could supply normalized growth values for the items below.
Answers are plain numbers.

Previously resolved entries follow.
Ask: Identify measured normalized growth associated with CC1=CC(=O)C2C(C)(C)CCC[C@]2(C)[C@@]1(O)CCc1ccoc1 (some centres not stated)
Reply: 0.992

Ask: Identify measured normalized growth associated with NCCCN
Reply: 1

Ask: Identify measured normalized growth associated with COc1cc2c(cc1OC)-c1c(oc3cc(O)cc(O)c3c1=O)CO2
Reply: 1.02

Record normalized growth for all entries; do not skip any.
1. CC(C)c1cccc(C(C)C)c1O
2. O=C(Nc1ccc(OC(F)(F)F)cc1)Nc1cccc(C(=O)O)c1
3. NCC(O)CC(=O)O (configuration not stated)
4. CC1(C)S[C@@H]2C(N3C(=O)[C@@H](c4ccccc4)NC3(C)C)C(=O)N2[C@H]1C(=O)O (some centres not stated)

Reply:
1: 0.994; 2: 1.01; 3: 0.994; 4: 0.974

----------
I'd appreciate it if you could supply normalized growth values for the items below.
RUN DESCRIPTION: chemical genetic growth profiling, strain panel (AID 1159580);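 further: tested at 20 µM; growth read once vehicle control cultures reached saturation at 30 °C; 1 = growth at the plate median or of vehicle wells; lower values mean less growth of the strain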
REPORTED CONDITIONS: S. cerevisiae deletion strains, growth OD, locus YDR001C, strain nth1, hits give low values
In all, about 5,500 compounds went through this assay and about 2,000 (36%) were called active. About 18% were inconclusive and are not listed. This is one part of the list.
Answers are plain numbers.

Record normalized growth for all entries; do not skip any.
1. C[C@@H]1CCC2[C@](C)(CO)[C@@H](O)CC[C@]2(C)[C@@]12CC[C@@](CO)(CCO)O2 (stereo not given in full)
2. CC12CCC(=O)C=C1CCc1ccccc12 (stereo not given)
3. Oc1ccc2c3c1OC1[C@@H](O)CC[C@@]4(O)[C@@H](C2)N(CC2CCC2)CC[C@]314 (stereo not given in full)
4. CC1(C)C(O)CC(=O)C2(C)C1CC(O)C1(C)C2CCC2(C)C(c3ccoc3)OC(=O)C3OC321 (stereo not given)
5. COc1cccc2c1CCC1=CC(=O)CC[C@@]12C

Reply:
[0.986, 0.967, 1.02, 0.999, 1]

----------
RUN DESCRIPTION: chemical genetic growth profiling, strain panel (AID 1159580);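 further: tested at 20 µM; growth read once vehicle control cultures reached saturation at 30 °C; 1 = growth at the plate median or of vehicle wells; lower values mean less growth of the strain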
REPORTED CONDITIONS: S. cerevisiae deletion strains, growth OD, locus YDR297W, strain sur2, hits give low values
The campaign covered roughly 5,500 compounds. About 2,000 (36%) were called active. Another 18% or so got no clear call; they are omitted. The list shows a part of the results.
I'd appreciate it if you could supply normalized growth values for the items below.
Give bare numbers.

Previously resolved entries follow.
Ask: Identify measured normalized growth associated with CO[C@@H]1[C@@H](OC(N)=O)[C@@H](O)[C@H](Oc2ccc3c(O)c(NC(=O)c4ccc(O)c(CC=C(C)C)c4)c(=O)oc3c2C)OC1(C)C
Reply: 1.03

Ask: Identify measured normalized growth associated with CC[C@@]1(O)C(=O)OCc2c1cc1n(c2=O)Cc2cc3cc(O)ccc3nc2-1
Reply: 0.987

Record normalized growth for all entries; do not skip any.
1. CC12CCC(=O)C=C1CCc1ccccc12 (stereo not given)
2. COc1cccc2c1CCC1=CC(=O)CC[C@@]12C
3. CC(C)c1cccc(C(C)C)c1O
4. CCCCCC(O)C1C(=O)OC(C)C(O)/C=C/C=C/C=C/C=C/C=C(\C)C(O)CC(O)CC(O)CC(O)CC(O)CC(O)CC1O (stereo not given)

Reply:
1. 0.978
2. 0.995
3. 0.988
4. 1.01

Record normalized growth for all entries; do not skip any.
1. N#Cc1c(Cl)cccc1Cl
2. COc1ccccc1N1CCN(CCCNc2cc(=O)n(C)c(=O)n2C)CC1
3. CC1CCCC(C)N1NC(=O)c1ccc(Cl)c(S(N)(=O)=O)c1 (stereo not given)

Reply:
1. 0.972
2. 1.01
3. 1.01

Ask: Identify measured normalized growth associated with C[C@@H]1CCC2[C@](C)(CO)[C@@H](O)CC[C@]2(C)[C@@]12CC[C@@](CO)(CCO)O2 (stereo not given in full)
Reply: 0.996

Source: PubChem BioAssay AID1159580
